TARGET_SYSTEM: T1, Full-length human CD96 on CHO-S cells (human, UniProt P40200 22-585)
T1 construct: also called CD96-CHOs; hCD96-CHOs
T1 sequence: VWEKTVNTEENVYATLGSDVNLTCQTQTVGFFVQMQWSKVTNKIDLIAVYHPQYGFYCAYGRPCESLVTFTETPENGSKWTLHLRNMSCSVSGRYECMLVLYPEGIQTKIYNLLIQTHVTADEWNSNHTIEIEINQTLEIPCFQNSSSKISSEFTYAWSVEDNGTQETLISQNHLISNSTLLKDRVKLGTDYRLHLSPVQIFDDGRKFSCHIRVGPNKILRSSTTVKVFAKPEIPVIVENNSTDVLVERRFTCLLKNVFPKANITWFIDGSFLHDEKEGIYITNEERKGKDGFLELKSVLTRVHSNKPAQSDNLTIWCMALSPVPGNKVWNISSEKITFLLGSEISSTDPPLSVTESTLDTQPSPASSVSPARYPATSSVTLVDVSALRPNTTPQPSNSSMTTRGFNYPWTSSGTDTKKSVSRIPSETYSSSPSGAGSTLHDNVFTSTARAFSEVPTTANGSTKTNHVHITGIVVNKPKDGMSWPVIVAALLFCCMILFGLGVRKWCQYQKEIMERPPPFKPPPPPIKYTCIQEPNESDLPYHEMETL
ASSAY_NAME: cell ELISA, fixed CD96-overexpressing CHO-S cells
EC50: recorded values
# output: bare number, implied unit nM

h1722-010 (antibody, V domains shown, Only variable regions are tied to this name; also called M722-010) VH: EVQLVQSGAEVKKPGSSVKVSCKASGGTFSDYWMHWVRQAPGQGLEWIGMLHPNSGTTSFNEKFKIRVTITADKSTSTAYMELSSLRSEDTAVYYCASDYSGPFAYWGQGTLVTVSS VL: DIQLTQSPSSLSASVGDRVTITCSASSSVNYIHWYQQKPGKAPKRWIFDTSKLASGVPSRFSGSGSGTDYTLTISSLQPEDFATYYCQQWRSNPLTFGQGTKLEIK : 0.047

Next item in the queue.
Lookup result for h1722-018 (antibody, V domains shown) VH: EVQLVQSGAEVKKPGSSVKVSCKASGGTFSDYWMHWVRQAPGQGLEWIGMLHPQSGTTSFNEKFKIRVTITADKSTSTAYMELSSLRSEDTAVYYCASDYSGPFAYWGQGTLVTVSS VL: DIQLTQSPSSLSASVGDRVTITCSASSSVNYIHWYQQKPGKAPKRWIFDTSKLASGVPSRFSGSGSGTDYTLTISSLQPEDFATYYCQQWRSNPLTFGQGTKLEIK ; measured EC50: 0.044
